inhibition at 25 µM listing for selected compounds.
target: insect ecdysteroid receptor (EcR) (Spodoptera frugiperda, UniProt Q8MWR2); construct: To an Sf-9 cell suspension (400 μL; (2.0–3.0) × 10^6 cells/mL) in a disposable culture tube; endogenous in cells; host or cells: Sf-9 cells; assay: EcR binding assay ([3H]PonA displacement in Sf-9 cells); settings: read-out: inh% at 25 μM
Sequence (Q8MWR2 1-403): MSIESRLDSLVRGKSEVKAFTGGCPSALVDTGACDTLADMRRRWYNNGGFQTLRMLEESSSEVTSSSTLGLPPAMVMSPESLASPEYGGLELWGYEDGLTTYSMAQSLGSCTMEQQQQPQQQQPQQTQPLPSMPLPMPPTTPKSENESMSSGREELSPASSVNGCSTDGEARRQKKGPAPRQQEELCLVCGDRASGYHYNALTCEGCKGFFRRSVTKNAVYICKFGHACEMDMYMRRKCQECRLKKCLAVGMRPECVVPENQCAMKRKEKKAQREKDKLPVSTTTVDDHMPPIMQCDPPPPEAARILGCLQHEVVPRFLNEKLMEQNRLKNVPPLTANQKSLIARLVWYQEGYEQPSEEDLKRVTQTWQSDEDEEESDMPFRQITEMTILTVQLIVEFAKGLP

# compound, endpoint-value
measured = [
    ("CC(C)(O)CC[C@@H](O)[C@](C)(O)[C@H]1CC[C@@H]2C3=C(CC[C@@]21C)[C@@]1(C)C[C@H](O)[C@H](O)CC1=C(O)C3=O [Compound 4, 14β-14,15-Dihydrocalonysterone]", "49.8%"),
    ("C/C(=N\\O)[C@H]1CC[C@@]2(O)C3=CC(=O)[C@@H]4C[C@@H](O)[C@@H](O)C[C@]4(C)[C@H]3CC[C@]12C [Compound 16, poststerone 20(E)-oxime]", "4.3%"),
    ("CC(C)(O)CC[C@@H](O)[C@](C)(O)[C@H]1CC[C@@]2(O)C3=CC(=O)[C@H]4C[C@@H](O)[C@@H](O)C[C@]4(C)[C@@]3(O)CC[C@]12C [Compound 21, 5α-9α,20-dihydroxyecdysone]", "27.1%"),
    ("CC(C)(O)CC[C@@H](O)[C@](C)(O)[C@H]1CC[C@@H]2C3=CC(=O)[C@@H]4C[C@@H](O)[C@@H](O)C[C@]4(C)[C@H]3CC[C@@]21C [Compound 10, 14β-14-Deoxy-20-hydroxyecdysone]", "18.2%"),
    ("CC(C)(O)CC[C@@H](O)[C@](C)(O)[C@H]1CC[C@@]2(O)C3=CC(=O)[C@@H]4C[C@@H](O)[C@@H](O)C[C@]4(C)[C@@]3(O)CC[C@]12C [Compound 20, 9α,20-dihydroxyecdysone]", "45.7%"),
]

Measured inhibition at 25 µM, CC(C)(O)CC[C@@H](O)[C@](C)(O)[C@H]1CC[C@@]2(O)C3=CC(=O)[C@H]4C[C@@H](O)C[C@@H](O)[C@]4(C)[C@H]3CC[C@]12C [Compound 15, 5α-2-deoxyintegristerone A] : 2.42%

Measured inhibition at 25 µM, CC(C)(O)CC[C@@H](O)[C@](C)(O)[C@H]1CC[C@@]2(O)C3=C/C(=N\O)[C@@H]4C[C@@H](O)[C@@H](O)C[C@]4(C)[C@H]3CC[C@]12C [Compound 18, 20-hydroxyecdysone 6(E)-oxime] : 60.1%

Measured inhibition at 25 µM, CC(C)(O)CC[C@@H](O)[C@](C)(O)[C@H]1CC[C@@]2(O)C3=C/C(=N/O)[C@@H]4C[C@@H](O)[C@@H](O)C[C@]4(C)[C@H]3CC[C@]12C [Compound 17, 20-hydroxyecdysone 6(Z)-oxime] : 4.53%

Measured inhibition at 25 µM, CC(C)(O)CC[C@@H](O)[C@](C)(O)[C@H]1CC=C2C3=C(CC[C@@]21C)[C@@]1(C)C[C@H](O)[C@H](O)CC1=C(O)C3=O [Compound 11, calonysterone] : 0%

Measured inhibition at 25 µM, CC(C)(O)CC[C@@H](O)[C@](C)(O)[C@H]1CC[C@H]2C3=CC(=O)[C@H]4C[C@@H](O)[C@@H](O)C[C@]4(C)[C@H]3CC[C@]12C [Compound 9, 5α-14-Deoxy-20-hydroxyecdysone] : 0.93%

###

IC50 listing for selected molecules.
biological target: insect ecdysteroid receptor (EcR) (Spodoptera frugiperda); construct: To an Sf-9 cell suspension (400 μL; (2.0–3.0) × 10^6 cells/mL) in a disposable culture tube; endogenous in cells; host or cells: Sf-9 cells; assay: EcR binding assay ([3H]PonA displacement in Sf-9 cells); conditions: pIC50 (M), ecdysteroid receptor binding affinity, inhibition of [3H]PonA binding, Sf-9 cell suspension, 25 °C, 30 min; probit analysis

Some solved entries appear below for comparison.
# molecule, IC50
rows = [
    ("CC(C)(O)CC[C@@H](O)[C@](C)(O)[C@H]1CC[C@@]2(O)C3=C/C(=N\\O)[C@@H]4C[C@@H](O)[C@@H](O)C[C@]4(C)[C@H]3CC[C@]12C [Compound 18, 20-hydroxyecdysone 6(E)-oxime]", "~2.51e-05 M"),
    ("CC(C)(O)CC[C@@H](O)[C@](C)(O)[C@H]1CC[C@H]2C3=CC(=O)[C@H]4C[C@@H](O)[C@@H](O)C[C@]4(C)[C@H]3CC[C@]12C [Compound 9, 5α-14-Deoxy-20-hydroxyecdysone]", "> 2.51e-05 M"),
]

Measured IC50, CC(C)CC[C@@H](O)[C@](C)(O)[C@H]1CC[C@@]2(O)C3=CC(=O)[C@@H]4C[C@@H](O)[C@@H](O)C[C@]4(C)[C@H]3CC[C@]12C [PonA, ponasterone A, reference compound] : 8.91e-09 M

###

target: insect ecdysteroid receptor (EcR) (Spodoptera frugiperda, UniProt Q8MWR2); construct: To an Sf-9 cell suspension (400 μL; (2.0–3.0) × 10^6 cells/mL) in a disposable culture tube; endogenous in cells; host or cells: Sf-9 cells; test: EcR binding assay ([3H]PonA displacement in Sf-9 cells); conditions: Sf-9 cells, [3H]PonA binding
endpoint-name: EcR binding activity in words

Some solved entries appear below for comparison.
# compound, endpoint-value
rows = [
    ("CC(C)CCC(=O)[C@](C)(O)[C@H]1CC[C@@]2(O)C3=CC(=O)[C@@H]4C[C@@H](O)[C@@H](O)C[C@]4(C)C3=CC[C@]12C", "moderate"),
    ("CC(C)(O)CC[C@@H](O)[C@](C)(O)[C@H]1CC[C@@]2(O)C3=CC(=O)[C@H]4C[C@@H](O)C[C@@H](O)[C@]4(C)[C@H]3CC[C@]12C", "very weak activity"),
    ("CC(C)(O)CC[C@@H](O)[C@](C)(O)[C@H]1CC[C@H]2C3=CC(=O)[C@H]4C[C@@H](O)[C@@H](O)C[C@]4(C)[C@H]3CC[C@]12C [Compound 9, 5α-14-Deoxy-20-hydroxyecdysone]", "very weak activity"),
    ("CC(C)(O)CC[C@@H](O)[C@](C)(O)[C@H]1CC[C@H]2C3=CC(=O)[C@@H]4C[C@@H](O)[C@@H](O)C[C@]4(C)C3=CC[C@]12C [Compound 7, 14-Deoxy-25-hydroxydacryhainansterone]", "moderate"),
    ("CC(C)CC[C@@H](O)[C@](C)(O)[C@H]1CC[C@@]2(O)C3=CC(=O)[C@@H]4C[C@@H](O)[C@@H](O)C[C@]4(C)C3=CC[C@]12C", "strong"),
    ("CC(C)(O)CC[C@@H](O)[C@](C)(O)[C@H]1CC[C@@]2(O)C3=CC(=O)[C@H]4C[C@@H](O)[C@@H](O)C[C@]4(C)[C@@]3(O)CC[C@]12C [Compound 21, 5α-9α,20-dihydroxyecdysone]", "very weak activity"),
]

From here, focus on the item given below.
Measured EcR binding activity in words, CC(C)CC[C@@H](O)[C@](C)(O)[C@H]1CC[C@H]2C3=CC(=O)[C@@H]4C[C@@H](O)[C@@H](O)C[C@]4(C)C3=CC[C@]12C : strong

###

IC50 listing for selected compounds.
target: insect ecdysteroid receptor (EcR) (Spodoptera frugiperda); construct: To an Sf-9 cell suspension (400 μL; (2.0–3.0) × 10^6 cells/mL) in a disposable culture tube; endogenous in cells; host or cells: Sf-9 cells; test: EcR binding assay ([3H]PonA displacement in Sf-9 cells); details: pIC50 (M), ecdysteroid receptor binding affinity, inhibition of [3H]PonA binding, Sf-9 cell suspension, 25 °C, 30 min; probit analysis
Unit M implied. Number only.

Some solved entries appear below for comparison.
# entry-smiles, IC50, M
rows = [
    ("CC(C)CC[C@@H](O)[C@](C)(O)[C@H]1CC[C@@]2(O)C3=CC(=O)[C@@H]4C[C@@H](O)[C@@H](O)C[C@]4(C)C3=CC[C@]12C", "2.29e-08"),
    ("CC1(C)CC[C@H]([C@](C)(O)[C@H]2CC[C@@]3(O)C4=CC(=O)[C@@H]5C[C@@H](O)[C@@H](O)C[C@]5(C)[C@H]4CC[C@]23C)O1", "2.51e-06"),
]

From here, focus on the item given below.
Measured IC50, CC(C)CC[C@@H](O)[C@](C)(O)[C@H]1CC[C@@]2(O)C3=CC(=O)[C@@H]4C[C@@H](O)[C@@H](O)C[C@]4(C)[C@H]3[C@H](O)C[C@]12C : 6.46e-07

###

molecular target: EcR (Spodoptera frugiperda); assay: Reporter gene assay (hsp27 ecdysone response element/firefly luciferase) in Sf-9 cells; format: cell-based, insect; conditions: 1 μM, Sf-9 cells, luciferase reporter
Sequence (Q8MWR2 1-403): as above
endpoint-name: agonistic activity in reporter gene assay at 1 μM

# molecule, endpoint-value
data = [
    ("CC(C)(O)CC[C@@H](O)[C@](C)(O)[C@H]1CC[C@H]2C3=CC(=O)[C@@H]4C[C@@H](O)[C@@H](O)C[C@]4(C)C3=CC[C@]12C [Compound 7, 14-Deoxy-25-hydroxydacryhainansterone]", "agonists"),
    ("CC(C)CCC(=O)[C@](C)(O)[C@H]1CC[C@@]2(O)C3=CC(=O)[C@@H]4C[C@@H](O)[C@@H](O)C[C@]4(C)C3=CC[C@]12C", "agonists"),
]
